Sourced from patent US20070027118A1

# TARGET OR SYSTEM: 11β-hsd-1 enzyme (Homo sapiens, UniProt P28845)
# Sequence (P28845 whole entry, species assumed): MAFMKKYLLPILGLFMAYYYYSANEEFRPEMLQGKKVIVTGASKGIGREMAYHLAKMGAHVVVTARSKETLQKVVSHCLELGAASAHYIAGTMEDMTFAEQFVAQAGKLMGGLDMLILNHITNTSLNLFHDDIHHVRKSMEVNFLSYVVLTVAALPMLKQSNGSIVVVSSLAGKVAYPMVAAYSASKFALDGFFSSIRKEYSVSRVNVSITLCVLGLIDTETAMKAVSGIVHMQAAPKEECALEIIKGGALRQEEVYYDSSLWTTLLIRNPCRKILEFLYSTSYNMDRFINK
# PROCEDURE DETAILS: biochemical
MEASUREMENT LABEL: Ki (µM)

SMILES STRUCTURE: Cc1cc(C)nc(NS(=O)(=O)N2CCN(c3ccc(C#N)cn3)CC2)c1
DISPLAY UNIT: µM
Ki: 0.014
--
SMILES STRUCTURE: CCc1cccc(NS(=O)(=O)N2CCCN(c3ccc(C(F)(F)F)cn3)CC2)n1
DISPLAY UNIT: µM
Ki: 0.012
--
SMILES STRUCTURE: CCc1cccc(NS(=O)(=O)N2CCC(Cc3cc(F)ccc3C)CC2)n1
DISPLAY UNIT: µM
Ki: 0.0054

1. O=C1CN(S(=O)(=O)Nc2ccc3ccccc3n2)CCN1Cc1ccc(F)cc1
2. Cc1cccc(NS(=O)(=O)N2CCN(c3nc4ccc(Cl)cc4o3)CC2)n1
Problem: Min Ki? 1 | 2 Select an item and report its label.
Solution: 2

I. Cc1ccc(C)n1-c1cccc(NS(=O)(=O)N2CCC(c3ccc(F)cc3)CC2)n1
II. CCc1cccc(NS(=O)(=O)N2CCN(c3cccc(OC)n3)CC2)n1
Problem: Return label of the item with the larger Ki. Candidates: I , II . Write down the label attached to your selection.
Solution: I
